Test system: NKM-1;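 note: growth inhibition of NKM-1 cells, read out with a cell viability assay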
Assay: cells
Type: functional, cell-based, Homo sapiens
Conditions: Homo sapiens, NKM-1
Description: SANGER: Inhibition of human NKM-1 cell growth in a cell viability assay.
So I've got a bunch of molecules here, and I need their IC50 values.

The molecule listed as COc1cc(N2CCN(C)CC2)ccc1Nc1ncc2c(n1)N(C)c1ccccc1C(=O)N2C shows IC50 equal to > 8 µM

Looking up C=C(c1ccc(C(=O)O)cc1)c1cc2c(cc1C)C(C)(C)CCC2(C)C , I see its IC50 listed as > 8 µM

Consider COc1cc(-c2nn([C@H]3CC[C@H](N4CCN(C(C)=O)CC4)CC3)c3ncnc(N)c23)ccc1NC(=O)c1cc2ccccc2n1C . Its measured IC50 is > 5.12 µM

IC50 measured on CC[C@H](CO)Nc1nc(NCc2ccccc2)c2ncn(C(C)C)c2n1 = > 16 µM

IC50 in this record for COc1cc2ncn(-c3cc(OCc4ccccc4S(C)(=O)=O)c(C#N)s3)c2cc1OC [GSK-319347A] : > 5 µM

Origin of values: ChEMBL document CHEMBL1201861
